tested on: Enterobacter cloacae; assay: Activity in vitro: minimum inhibitory concentration; format: cell-based; details: Enterobacter cloacae strain 3
ENDPOINT NAME: MIC (mg/L)
Answer in mg/L, number only, no unit symbol.

Study these solved cases before continuing.
1. CO/N=C(\C(=O)N[C@@H]1C(=O)N2C(C(=O)[O-])=C(CSc3nnnn3C)CS[C@H]12)c1c[se]c(N)n1.[Na+] [Product A] :: 50
2. CC(=O)OCC1=C(C(=O)[O-])N2C(=O)[C@@H](NC(=O)/C(=N\O)c3c[se]c(N)n3)[C@H]2SC1.[Na+] [Product L] :: 25

Turning now to a further record.
Please report the recorded MIC for CC(C)(O/N=C(\C(=O)N[C@@H]1C(=O)N2C(C(=O)[O-])=C(C[n+]3ccccc3)CS[C@H]12)c1c[se]c(N)n1)C(=O)O [Product K] .
100

* * *

Recorded MIC for the following molecules
test system: Staphylococcus aureus; assay: Activity in vitro: minimum inhibitory concentration; format: cell-based; details: Staphylococcus aureus strain 3
Structures can show the parent of a compound that is named as a salt.
Answer in µg/mL, number only, no unit symbol.

Study these solved cases before continuing.
1. CC(=O)OCC1=C(C(=O)[O-])N2C(=O)[C@@H](NC(=O)/C(=N\O)c3c[se]c(N)n3)[C@H]2SC1.[Na+] :: 0.4
2. CC1=C(C(=O)[O-])N2C(=O)[C@@H](NC(=O)/C(=N\O)c3c[se]c(N)n3)[C@H]2SC1.[Na+] :: 3.1

Please report the recorded MIC for CO/N=C(\C(=O)N[C@@H]1C(=O)N2C(C(=O)[O-])=C(CSc3nnnn3C)CS[C@H]12)c1c[se]c(N)n1.[Na+] .
0.8

Please report the recorded MIC for CO/N=C(\C(=O)N[C@@H]1C(=O)N2C(C(=O)O)=C(CSc3nc(=O)c(O)nn3C)CS[C@H]12)c1c[se]c(N)n1 [Product C, disodium salt] .
3.1

* * *

Recorded MIC for the following compounds
system: Streptococcus pyogenes; assay: Activity in vitro: minimum inhibitory concentration; format: cell-based; conditions: Streptococcus pyogenes strain 2, read-out: Minimum inhibitory concentration
Counter-ions that a name gives are not always drawn.
Answer in µg/mL, number only, no unit symbol.

Study these solved cases before continuing.
1) CC(=O)OCC1=C(C(=O)O)N2C(=O)[C@@H](NC(=O)/C(=N\OC(C)(C)C(=O)O)c3c[se]c(N)n3)[C@H]2SC1 [Product I, disodium salt] :: 0.05
2) CO/N=C(\C(=O)N[C@@H]1C(=O)N2C(C(=O)O)=C(CSc3nc(=O)c(O)nn3C)C[S+]([O-])[C@H]12)c1c[se]c(N)n1 (stereo partly shown) [Product E, disodium salt] :: 0.2
3) CO/N=C(\C(=O)N[C@@H]1C(=O)N2C(C(=O)O)=C(C)CS[C@H]12)c1c[se]c(N)n1 [Product F, sodium salt] :: 0.05

Turning now to a further record.
Please report the recorded MIC for CC1=C(C(=O)[O-])N2C(=O)[C@@H](NC(=O)/C(=N\O)c3c[se]c(N)n3)[C@H]2SC1.[Na+] .
0.1

* * *

system: Escherichia coli; experiment: Activity in vivo: survival of intraperitoneally infected mice; details: sc, 96 h; mice infected i.p. with Escherichia coli; s.c. twice, 1 h and 3 h after infection; survival on 4th day; read-out: CD50 (dosage at which 50% of the animals survive)
Counter-ions that a name gives are not always drawn.
ENDPOINT NAME: ED50 (mg/kg)
Answer in mg/kg, number only, no unit symbol.

1) CO/N=C(\C(=O)N[C@@H]1C(=O)N2C(C(=O)[O-])=C(CSc3nnnn3C)CS[C@H]12)c1c[se]c(N)n1.[Na+] :: 0.006
2) CC(=O)OCC1=C(C(=O)O)N2C(=O)[C@@H](NC(=O)/C(=N\OC(C)(C)C(=O)O)c3c[se]c(N)n3)[C@H]2SC1 [Product I, disodium salt] :: 0.067

Please report the recorded ED50 for CO/N=C(\C(=O)N[C@@H]1C(=O)N2C(C(=O)O)=C(CSc3nc(=O)c(O)nn3C)C[S+]([O-])[C@H]12)c1c[se]c(N)n1 (stereo partly shown) [Product E, disodium salt] .
0.017
